Each item that follows carries a reported melting point.

Consider the worked cases shown below.
{"columns": ["COMPOUND", "PARAMETER MEASURED", "MEAS VALUE"],
 "data": [
  ["Cc1cc(-c2cc(=O)c3cccnc3o2)ccc1O", "melting point", "300 to 302 °C"],
  ["O=c1cc(-c2ccc([N+](=O)[O-])cc2)oc2ncccc12", "melting point", "261 to 263 °C"]
]}

## Input In one line, give reported melting point of the entry O=c1cc(-c2ccc(O)nc2)oc2ccccc12 [Example 48, 2-(6-Hydroxypyridin-3-yl)-chromen-4-one] .
## Output 296 to 297 °C

## Input In one line, give reported melting point of the entry O=c1c(-c2ccc(O)cc2)coc2ncccc12 .
## Output 262 to 264 °C

## Input In one line, give reported melting point of the entry O=c1cc(-c2ccc(O)cc2)oc2c1ccc[n+]2[O-] .
## Output 314 to 315 °C

## Input In one line, give reported melting point of the entry COc1cccc2c(=O)cc(-c3ccc(O)cc3)oc12 .
## Output 281 to 283 °C

## Input In one line, give reported melting point of the entry O=c1cc(-c2ccc(O)c(F)c2)oc2ccccc12 .
## Output 275 to 276 °C

## Input In one line, give reported melting point of the entry N#Cc1ccc(-c2cc(=O)c3cccnc3o2)cc1 .
## Output 250 to 252 °C

## Input In one line, give reported melting point of the entry O=c1cc(-c2ccc(O)cc2)oc2c[n+]([O-])ccc12 .
## Output 307 to 308 °C

## Input In one line, give reported melting point of the entry O=c1cc(-c2ccc(O)c(F)c2)oc2ccc(CO)cc12 .
## Output 256 to 258 °C

###

Each item that follows carries a reported solubility at 3 h.
Experiment: Solubility analysis in PBS (HPLC-UV)
Assay type: physicochemical
Conditions: aqueous buffer, thermodynamic from solid; 1 mg in 1 mL PBS, sonicated 1 hour, 25° C. for 3 hrs
Please reply with the bare figure in µM and do not write the unit itself.

Consider the worked cases shown below.
{"columns": ["COMPOUND", "UNITS TEXT", "solubility at 3 h"],
 "data": [
  ["O=c1[nH]c(-c2ccc(O)cc2)cc2ccccc12 [Example 53, 3-(4-hydroxyphenyl)-2H-isoquinolin-1-one]", "µM", 44.9],
  ["O=c1cc(-c2ccc(O)c(Cl)c2)oc2ncccc12", "µM", 84.4],
  ["O=c1cc(-c2ccc(O)cc2)oc2ccncc12", "µM", 31.6],
  ["CNc1nc(-c2ccc(O)cc2)cc2cc(OC)cc(OC)c12.Cl", "µM", 66.8],
  ["O=c1cc(-c2ccc(O)cc2)oc2ccccc12 [4′-hydroxyflavone, reference compound]", "µM", 5.04],
  ["O=c1cc(-c2ccc(O)c(Br)c2)oc2ncccc12", "µM", 52.6]
]}

// below: solubility at 3 h requested for another compound
## Input In one line, give reported solubility at 3 h of the entry O=c1cc(-c2ccc(O)c(F)c2)oc2ccc(CO)cc12 .
## Output 51.4

###

Test system: human ApoA-I promoter
Assay: ApoA-I promoter induction in Caco-2 intestinal cells (pAI.474-Luc luciferase reporter)
Type: cell-based
Conditions: Caco-2 cells, 15 μM, 48 hours incubation, luciferase activity vs control samples

{"columns": ["MOLECULE", "ApoA-I Promoter Induction"],
 "data": [
  ["CN(C)Cc1c(-c2ccc(O)cc2)oc2ccccc2c1=O.Cl [Example 20]", "no increase"],
  ["O=c1cc(-c2ccc(O)cc2)oc2c1ccc[n+]2[O-] [Example 31]", "no increase"],
  ["O=c1cc(-c2ccccc2)oc2cc(O)ccc12 [7-Hydroxy-2-phenyl-4H-chromen-4-one, 7-hydroxy-2-phenyl-4H-chromen-4-one, reference compound]", "increased"],
  ["CNc1nc(-c2ccc(O)cc2)cc2cc(OC)cc(OC)c12.Cl [Example 82]", "increased"]
]}

###

Each item that follows carries a reported melting point.

Consider the worked cases shown below.
{"columns": ["COMPOUND", "melting point"],
 "data": [
  ["Oc1ccc(C2=COc3ccccc3O2)cc1 [Example 70, 4-(Benzo[b][1,4]dioxin-2-yl)phenol]", "137 to 140 °C"],
  ["O=c1cc(-c2ccc(OCCO)cc2)oc2ncccc12", "157 to 159 °C"],
  ["CNc1nc(-c2ccc(O)cc2)cc2cc(OC)cc(OC)c12.Cl", "250 to 253 °C"],
  ["CN(C)Cc1ccc2oc(-c3ccc(O)cc3)cc(=O)c2c1", "99 to 102 °C"],
  ["Oc1ccc(-c2ccc3ccccc3c2)nc1", "168 to 169 °C"]
]}

// below: melting point requested for another compound
## Input In one line, give reported melting point of the entry O=c1cc(-c2ccc(O)c(CO)c2)oc2ncccc12 .
## Output 226 to 227 °C

###

Each item that follows carries a reported Papp.
Assay: Caco-2 permeability
Assay type: in vitro ADME, human
Conditions: human, Caco-2
Please reply with the bare figure in ×10⁻⁶ cm/s and do not write the unit itself.

{"columns": ["COMPOUND", "UNITS TEXT", "MEAS VALUE"],
 "data": [
  ["O=c1cc(-c2cc(F)c(O)c(F)c2)oc2ccccc12", "×10⁻⁶ cm/s", 0.531]
]}

// below: Papp requested for another compound
## Input In one line, give reported Papp of the entry Cc1cc(-c2cc(=O)c3ccccc3o2)cc(C)c1O .
## Output 0.695

###

Test: Solubility analysis in PBS (HPLC-UV)
Assay type: physicochemical
Details: aqueous buffer, thermodynamic from solid; 1 mg in 1 mL PBS, sonicated 1 hour, 25° C. for 3 hrs
Each item that follows carries a reported solubility at 3 h.
Please reply with the bare figure in µM and do not write the unit itself.

Consider the worked cases shown below.
{"columns": ["COMPOUND STRUCTURE", "solubility at 3 h / µM"],
 "data": [
  ["COc1cc(-c2cc(=O)c3cccnc3o2)ccc1O", 47.1],
  ["O=c1cc(-c2ccc(O)c(F)c2)oc2ncccc12", 194]
]}

## Input In one line, give reported solubility at 3 h of the entry O=c1cc(-c2ccc(OCCO)cc2)oc2ncccc12 .
## Output 334

## Input In one line, give reported solubility at 3 h of the entry O=c1cc(-c2ccc(O)c(CO)c2)oc2ncccc12 .
## Output 48.5

## Input In one line, give reported solubility at 3 h of the entry COc1cc(OC)c2c(=O)[nH]c(-c3ccc(O)cc3)cc2c1 .
## Output 58.2

###

Each item that follows carries a reported melting point.

{"columns": ["COMPOUND", "PARAMETER MEASURED", "MEAS VALUE"],
 "data": [
  ["O=c1cc(-c2ccc(O)cc2)oc2ccncc12", "melting point", "306 to 308 °C"],
  ["COc1cccc2c(=O)[nH]c(-c3ccc(O)c(F)c3)cc12", "melting point", "289 to 291 °C"],
  ["O=c1c(CO)c(-c2ccc(O)cc2)oc2ccccc12", "melting point", "234 to 235 °C"],
  ["COc1cc(-c2cc(=O)c3cccnc3o2)ccc1O", "melting point", "253 to 255 °C"]
]}

## Input In one line, give reported melting point of the entry O=c1cc(-c2ccc(O)cc2)oc2ccc(CO)cc12 .
## Output 246 to 247 °C

## Input In one line, give reported melting point of the entry O=c1cc(-c2ccc(O)c(Br)c2)oc2ccccc12 .
## Output 273.5 to 274.9 °C

## Input In one line, give reported melting point of the entry CC(=O)Oc1ccc(C2=CC(C)(C)c3ccccc3O2)cc1 .
## Output 84 to 86 °C

###

Each item that follows carries a reported Papp.
Experiment: Caco-2 permeability
Type: in vitro ADME, human
Conditions: human, Caco-2
Please reply with the bare figure in ×10⁻⁶ cm/s and do not write the unit itself.

{"columns": ["MOLECULE", "MEAS VALUE"],
 "data": [
  ["Nc1cc(O)ccc1-c1cc(=O)c2ccccc2o1 [Example 3]", 7.42],
  ["O=c1cc(-c2ccc(O)cc2)oc2ccccc12 [4′-hydroxyflavone, reference compound]", 4.31],
  ["O=c1[nH]c(-c2ccc(O)cc2)cc2ccccc12 [Example 53, 3-(4-hydroxyphenyl)-2H-isoquinolin-1-one]", 1.76],
  ["Cc1cc(-c2cc(=O)c3cccnc3o2)ccc1O [Example 38]", 0.596]
]}

## Input In one line, give reported Papp of the entry O=c1cc(-c2ccncc2)oc2ccccc12 [Example 47, 2-pyridin-4-yl-chromen-4-one] .
## Output 6.48

## Input In one line, give reported Papp of the entry O=c1cc(-c2ccc(O)cc2)oc2cccnc12 [Example 35] .
## Output 1.98

## Input In one line, give reported Papp of the entry O=c1cc(-c2ccc(O)c(Br)c2)oc2ncccc12 [Example 42] .
## Output 0.959
